Tested on: UO-31
Assay: Cytotoxicity against human UO31 cells assessed as cell growth at 10^-5 M after 48 hrs by SRB assay
Assay type: functional
Conditions: UO-31, 48 h, read-out: Activity
reported-property: growth at 10 µM (%)

> print(dat)
                           substance.smiles  reported.property  measured.number
1  O/N=C(/CSc1nnc(-c2ccccc2)n1-c1ccccc1)c1ccccc1    growth at 10 µM             77.4
2  COc1ccc(-c2nnc(SC/C(=N/O)c3ccccc3)n2-c2ccccc2)cc1OC    growth at 10 µM             80.1
3  COc1cc(-c2nnc(SC/C(=N/O)c3ccccc3)n2-c2ccccc2)cc(OC)c1OC    growth at 10 µM             69.5
4  CCn1c(SC/C(=N/O)c2ccccc2)nnc1-c1ccc(OC)c(OC)c1    growth at 10 µM             85.4
5    CCn1c(SC/C(=N/O)c2ccccc2)nnc1-c1ccccc1    growth at 10 µM             91.5
6  COc1ccc(-c2nnc(SC/C(=N/O)c3ccccc3)n2-c2ccccc2)cc1    growth at 10 µM             87.1
7  C=CCn1c(SC/C(=N\O)c2ccccc2)nnc1-c1ccc(OC)c(OC)c1    growth at 10 µM             77.9

----------
Assay: Induction of nitric oxide release in phosphate buffer at pH 7.4 at 0.1 mM after 1 hr by Griess method in presence of 0.5 mM of N-acetylcysteine
Format: physicochemical
Conditions: pH 7.4, 1 h, 100 µM
Entries and their measured Activity follow.
reported-property: Activity

> print(dat)
                            substance.smiles        result
 1  O/N=C(/CSc1nnc(-c2ccccc2)n1-c1ccccc1)c1ccccc1  0.06 mol/mol
 2  COc1cc(-c2nnc(SC/C(=N/O)c3ccccc3)n2-c2ccccc2)cc(OC)c1OC  0.07 mol/mol
 3  CCn1c(SC/C(=N/O)c2ccccc2)nnc1-c1ccc(OC)cc1  0.08 mol/mol
 4  CCn1c(SC/C(=N/O)c2ccccc2)nnc1-c1ccc(OC)c(OC)c1  0.06 mol/mol
 5  C=CCn1c(SC/C(=N/O)c2ccccc2)nnc1-c1cc(OC)c(OC)c(OC)c1  0.08 mol/mol
 6  COc1ccc(-c2nnc(SC/C(=N/O)c3ccccc3)n2-c2ccccc2)cc1OC  0.15 mol/mol
 7  C=CCn1c(SC/C(=N/O)c2ccccc2)nnc1-c1ccc(OC)cc1  0.09 mol/mol
 8  C=CCn1c(SC/C(=N\O)c2ccccc2)nnc1-c1ccccc1  0.06 mol/mol
 9  C=CCn1c(SC/C(=N\O)c2ccccc2)nnc1-c1ccc(OC)c(OC)c1  0.09 mol/mol
10    CCn1c(SC/C(=N/O)c2ccccc2)nnc1-c1ccccc1  0.06 mol/mol
11  COc1ccc(-c2nnc(SC/C(=N/O)c3ccccc3)n2-c2ccccc2)cc1  0.08 mol/mol
12  CCn1c(SC/C(=N/O)c2ccccc2)nnc1-c1cc(OC)c(OC)c(OC)c1  0.11 mol/mol

----------
Tested on: MOLT-4
Test: Cytotoxicity against human MOLT4 cells assessed as cell growth at 10^-5 M after 48 hrs by SRB assay
Type: functional
Settings: MOLT-4, 48 h, read-out: Activity
growth at 10 µM of 90% or higher: Y. Under 90%: N.

> print(dat)
                           substance.smiles  assigned.label
1  COc1ccc(-c2nnc(SC/C(=N/O)c3ccccc3)n2-c2ccccc2)cc1OC               N
2  O/N=C(/CSc1nnc(-c2ccccc2)n1-c1ccccc1)c1ccccc1               N
3    CCn1c(SC/C(=N/O)c2ccccc2)nnc1-c1ccccc1               Y
4  COc1ccc(-c2nnc(SC/C(=N/O)c3ccccc3)n2-c2ccccc2)cc1               N
5  COc1cc(-c2nnc(SC/C(=N/O)c3ccccc3)n2-c2ccccc2)cc(OC)c1OC               N
6  C=CCn1c(SC/C(=N\O)c2ccccc2)nnc1-c1ccc(OC)c(OC)c1               N

// data source = ChEMBL document CHEMBL2390929
